Origin of the recorded values: patent US20260022098A1

# Test system: Kunming mice
# test_name: Acute toxicity / median lethal dose (LD50) determination, subcutaneous injection
# Format: in vivo
# Parameters: key: if death occurred, (+) represented as positive; if no death occurred, (−) represented as negative
# condition_set: mice administered 20 mg/kg subcutaneously, presence of death within 24 h
reported_property: Acute toxicity

Consider the following illustrative entries.
molecule	reported_property	value_measured
CCO[C@]12C[C@H](OC)[C@@]3(OC(=O)c4cccc(F)c4)CC(C1[C@H]3OC(=O)c1cccc(F)c1)[C@]13C4[C@@H](OC)C2[C@H]1N(CC)C[C@]4(COC)CC[C@@H]3OC (stereo partly shown) [Compound 72]	Acute toxicity	−
CCN1C[C@]2(COC)CC[C@H](OC)[C@@]34C5C[C@]6(OC(=O)c7cccnc7)[C@@H](OC)C[C@@](OC(C)=O)(C5[C@H]6OC(=O)c5ccc(OC)cc5)C([C@H](OC)C23)[C@@H]14 (stereo partly shown) [Compound 29]	Acute toxicity	−
CCO[C@]12C[C@H](OC)[C@@]3(OC(=O)c4ccc(C)cc4)CC(C1[C@H]3OC(=O)c1ccc(OC)cc1)[C@]13C4[C@@H](OC)C2[C@H]1N(CC)C[C@]4(COC)CC[C@@H]3OC (stereo partly shown) [Compound 57]	Acute toxicity	−
CCO[C@]12C[C@H](OC)[C@@]3(OC(=O)c4ccco4)CC(C1[C@H]3OC(=O)c1ccco1)[C@]13C4[C@@H](OC)C2[C@H]1N(CC)C[C@]4(COC)CC[C@@H]3OC (stereo partly shown) [Compound 6]	Acute toxicity	−
CCN1C[C@]2(COC)CC[C@H](OC)[C@@]34C5C[C@]6(OC(=O)c7ccccc7)[C@@H](OC)C[C@@](OC)(C5[C@H]6OC(=O)c5ccccc5)C([C@H](OC)C23)[C@@H]14 (stereo partly shown) [Compound 55]	Acute toxicity	−
CCCC(=O)O[C@]12CC3C([C@H]1OC(=O)c1ccc(OC)cc1)[C@](OCC)(C[C@@H]2OC)C1[C@H](OC)C2[C@@]4(COC)CC[C@H](OC)[C@@]32[C@@H]1N(CC)C4 (stereo partly shown) [Compound 78]	Acute toxicity	−

For every record below, what is its Acute toxicity?
1. CCO[C@]12C[C@H](OC)[C@@]3(OC(=O)c4ccc(F)cc4)CC(C1[C@H]3OC(=O)c1ccc(OC)cc1)[C@]13C4[C@@H](OC)C2[C@H]1N(CC)C[C@]4(COC)CC[C@@H]3OC (stereo partly shown) [Compound 60]
2. CCO[C@]12C[C@H](OC)[C@@]3(OC(=O)c4cccnc4)CC(C1[C@H]3OC(=O)c1ccc(OC)cc1)[C@]13C4[C@@H](OC)C2[C@H]1N(CC)C[C@]4(COC)CC[C@@H]3OC (stereo partly shown) [Compound 28]

A)
1. −
2. −

Give me Acute toxicity for each of these molecules, listed below.
1. CCOc1ccc(C(=O)O[C@@H]2C3C4C[C@]2(OC(=O)c2ccc(OCC)cc2)[C@@H](OC)C[C@]3(OCC)C2[C@H](OC)C3[C@@]5(COC)CC[C@H](OC)[C@@]43[C@@H]2N(CC)C5)cc1 (stereo partly shown) [Compound 35]
2. CCO[C@]12C[C@H](OC)[C@@]3(O)CC(C1[C@H]3O)[C@]13C4[C@@H](OC)C2[C@H]1N(CC)C[C@]4(COC)CC[C@@H]3OC (stereo partly shown) [Compound 4]

A)
["−", "−"]

* * *

I'd appreciate it if you could supply inhibition in vivo at 0.05 mg/kg values for the items below.
# System: Kunming mice
# test_name: Analgesic activity by acetic acid-induced writhing method (writhing inhibition rate, ED50)
# Assay type: in vivo
# condition_set: Mus musculus, sc; dosing concentration 0.05 mg/kg, subcutaneous, acetic acid-induced writhing, mice; read-out: Analgesia rate (%) ± SEM
Answers are plain numbers, in %.

compound	measurement_units	inhibition in vivo at 0.05 mg/kg
CCN1C[C@]2(COC)CC[C@H](OC)[C@@]34C5C[C@]6(OC(=O)c7ccco7)[C@@H](OC)C[C@@](OC(C)=O)(C5[C@H]6OC(=O)c5ccc(OC)cc5)C([C@H](OC)C23)[C@@H]14 (stereo partly shown)	%	45.7
CCO[C@]12C[C@H](OC)[C@@]3(OC(=O)CC(C)(C)C)CC(C1[C@H]3OC(=O)c1ccc(OC)cc1)[C@]13C4[C@@H](OC)C2[C@H]1N(CC)C[C@]4(COC)CC[C@@H]3OC (stereo partly shown)	%	41.9
CCO[C@]12C[C@H](OC)[C@@]3(OC(=O)c4ccco4)CC(C1[C@H]3OC(=O)c1ccco1)[C@]13C4[C@@H](OC)C2[C@H]1N(CC)C[C@]4(COC)CC[C@@H]3OC (stereo partly shown)	%	59.8

Q) Report measured inhibition in vivo at 0.05 mg/kg on Kunming mice; entry: CCO[C@]12C[C@H](OC)[C@@]3(OC(=O)c4ccc(F)cc4)CC(C1[C@H]3OC(=O)c1ccc(F)cc1)[C@]13C4[C@@H](OC)C2[C@H]1N(CC)C[C@]4(COC)CC[C@@H]3OC (stereo partly shown)
A) 43.5

* * *

# test_name: Acute toxicity / median lethal dose (LD50) determination, subcutaneous injection
# Type: in vivo, mice
# condition_set: both sexes, Kunming, mouse, in vivo, sc; mice, subcutaneous, survival within 24 h, Probit regression; >X = no death or toxic symptoms at X mg/kg
What LD50 was measured for each of the following?

Examples from the recorded data:
compound	LD50
CCO[C@]12C[C@H](OC)[C@@]3(OC(=O)C4CCCCC4)CC(C1[C@H]3OC(=O)C1CCCCC1)[C@]13C4[C@@H](OC)C2[C@H]1N(CC)C[C@]4(COC)CC[C@@H]3OC (stereo partly drawn)	> 100 mg/kg
CCO[C@]12C[C@H](OC)[C@@]3(OC(=O)c4ccccc4F)CC(C1[C@H]3OC(=O)c1ccccc1F)[C@]13C4[C@@H](OC)C2[C@H]1N(CC)C[C@]4(COC)CC[C@@H]3OC (stereo partly drawn)	> 100 mg/kg

Next:
Q) In one line, give reported LD50 of the entry CCO[C@]12C[C@H](OC)[C@@]3(OC(=O)c4cccnc4)CC(C1[C@H]3OC(=O)c1cccnc1)[C@]13C4[C@@H](OC)C2[C@H]1N(CC)C[C@]4(COC)CC[C@@H]3OC (stereo partly drawn) .
A) > 600 mg/kg

* * *

I'd appreciate it if you could supply TI values for the items below.
# System: Kunming mice
# test_name: Calculation of therapeutic index (TI = LD50/ED50)
# Assay type: in vivo
# Protocol: (3) Calculation of Therapeutic Index (TI) The therapeutic index of each compound was calculated based on the median effective dose and the median lethal dose, which were specifically as follows: therapeutic index (TI)=median lethal dose (LD50)/median effective dose (ED50).

The cases that follow already have their TI on record.
molecule	TI
CCO[C@]12C[C@H](OC)[C@@]3(OC(=O)C4CCCCC4)CC(C1[C@H]3OC(=O)C1CCCCC1)[C@]13C4[C@@H](OC)C2[C@H]1N(CC)C[C@]4(COC)CC[C@@H]3OC (some centres unmarked) [Compound 5]	>1204.8
CCO[C@]12C[C@H](OC)[C@@]3(OC(=O)c4ccc([N+](=O)[O-])cc4)CC(C1[C@H]3OC(=O)c1ccc(OC)cc1)[C@]13C4[C@@H](OC)C2[C@H]1N(CC)C[C@]4(COC)CC[C@@H]3OC (some centres unmarked) [Compound 39]	>512.8
CCO[C@]12C[C@H](OC)[C@@]3(OC(=O)c4ccco4)CC(C1[C@H]3OC(=O)c1ccco1)[C@]13C4[C@@H](OC)C2[C@H]1N(CC)C[C@]4(COC)CC[C@@H]3OC (some centres unmarked) [Compound 6]	>8695.7
CCO[C@]12C[C@H](OC)[C@@]3(OC(=O)c4ccc(OC)cc4)CC(C1[C@H]3OC(=O)c1ccc(OC)cc1)[C@]13C4[C@@H](OC)C2[C@H]1N(CC)C[C@]4(COC)CC[C@@H]3OC (some centres unmarked) [Compound 13]	>1219.5

Hey, quick one: what's TI for each of these?
1. CCN1C[C@]2(COC)CC[C@H](OC)[C@@]34C5C[C@]6(OC(=O)c7cccnc7)[C@@H](OC)C[C@@](OC(C)=O)(C5[C@H]6OC(=O)c5ccc(OC)cc5)C([C@H](OC)C23)[C@@H]14 (some centres unmarked) [Compound 29]
2. CCO[C@]12C[C@H](OC)[C@@]3(OC(=O)c4ccc(Cl)cc4)CC(C1[C@H]3OC(=O)c1ccc(OC)cc1)[C@]13C4[C@@H](OC)C2[C@H]1N(CC)C[C@]4(COC)CC[C@@H]3OC (some centres unmarked) [Compound 83]
3. CCO[C@]12C[C@H](OC)[C@@]3(OC(=O)c4ccccc4)CC(C1[C@H]3OC(=O)c1ccccc1)[C@]13C4[C@@H](OC)C2[C@H]1N(CC)C[C@]4(COC)CC[C@@H]3OC (some centres unmarked) [Compound 52]
4. CCO[C@]12C[C@H](OC)[C@@]3(OC(=O)c4cccnc4)CC(C1[C@H]3OC(=O)c1cccnc1)[C@]13C4[C@@H](OC)C2[C@H]1N(CC)C[C@]4(COC)CC[C@@H]3OC (some centres unmarked) [Compound 27]

A)
1: 27.9; 2: 524.9; 3: >208.8; 4: >18181.8
